ASSAYED TARGET: E-selectin (Homo sapiens)
Construct: mixed 1:1 with a solution of 0.2 μM labeled E-SelectinSCR2; made in house
Sequence (P16581 22-301 limits assumed): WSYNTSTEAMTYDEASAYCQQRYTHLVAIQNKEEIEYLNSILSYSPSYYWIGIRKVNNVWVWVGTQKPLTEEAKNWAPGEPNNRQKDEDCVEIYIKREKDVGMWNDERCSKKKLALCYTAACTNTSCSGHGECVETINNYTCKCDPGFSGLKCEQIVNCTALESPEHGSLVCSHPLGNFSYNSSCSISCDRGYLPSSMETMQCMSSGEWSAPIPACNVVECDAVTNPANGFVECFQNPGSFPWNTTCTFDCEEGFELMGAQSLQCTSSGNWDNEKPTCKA
PROCEDURE SUMMARY: Microscale thermophoresis (MST) affinity measurement
Assay type: binding
CONDITION DETAILS: MST, 25 °C, labeled E-selectinSCR2
I'd be grateful if you could share measured Kd for these entries.

Would you mind giving Kd for every molecule in the list below?
1. CC(C)[C@H]1CCC[C@@H](O[C@@H]2O[C@H](CO)[C@H](O)[C@H](O[C@@H](CC3CCCCC3)C(=O)O)[C@H]2O)[C@@H]1O[C@@H]1O[C@@H](C)[C@@H](O)[C@@H](O)[C@@H]1O
2. CC(C)C[C@H]1CCC[C@@H](O[C@@H]2O[C@H](CO)[C@H](O)[C@H](O[C@@H](CC3CCCCC3)C(=O)O)[C@H]2O)[C@@H]1O[C@@H]1O[C@@H](C)[C@@H](O)[C@@H](O)[C@@H]1O
3. C[C@@H]1O[C@@H](O[C@@H]2[C@@H](c3ccccc3)CCC[C@H]2O[C@@H]2O[C@H](CO)[C@H](O)[C@H](O[C@@H](CC3CCCCC3)C(=O)O)[C@H]2O)[C@@H](O)[C@H](O)[C@@H]1O
4. C[C@@H]1O[C@@H](O[C@H]2[C@H](O[C@@H]3O[C@H](CO)[C@H](O)[C@H](O[C@@H](CC4CCCCC4)C(=O)O)[C@H]3O)CCC[C@@H]2C(C)(C)C)[C@@H](O)[C@H](O)[C@@H]1O
5. CCCC[C@H]1CCC[C@@H](O[C@@H]2O[C@H](CO)[C@H](O)[C@H](O[C@@H](CC3CCCCC3)C(=O)O)[C@H]2O)[C@@H]1O[C@@H]1O[C@@H](C)[C@@H](O)[C@@H](O)[C@@H]1O
6. C[C@@H]1O[C@@H](O[C@@H]2[C@@H](CCCc3ccccc3)CCC[C@H]2O[C@@H]2O[C@H](CO)[C@H](O)[C@H](O[C@@H](CC3CCCCC3)C(=O)O)[C@H]2O)[C@@H](O)[C@H](O)[C@@H]1O

Found:
6.8 µM
6 µM
8.8 µM
51 µM
5.4 µM
28 µM

====

I'd be grateful if you could share measured Kd for these entries.
ASSAYED TARGET: E-selectin (Homo sapiens, UniProt P16581)
Construct: mixed 1:1 with a solution of 0.2 μM labeled E-SelectinSCR2; made in house
PROCEDURE SUMMARY: Microscale thermophoresis (MST) affinity measurement
Type: binding
CONDITION DETAILS: MST, 25 °C, labeled E-selectinSCR2
One number for each entry, in µM.

{"columns": ["RECORD SMILES", "UNIT TEXT", "Kd"],
 "data": [
  ["COCCOC[C@H]1CCC[C@@H](O[C@@H]2O[C@H](CO)[C@H](O)[C@H](O[C@@H](CC3CCCCC3)C(=O)O)[C@H]2O)[C@@H]1O[C@@H]1O[C@@H](C)[C@@H](O)[C@@H](O)[C@@H]1O", "µM", 31],
  ["C[C@@H]1O[C@@H](O[C@@H]2[C@@H](CC(F)(F)F)CCC[C@H]2O[C@@H]2O[C@H](CO)[C@H](O)[C@H](O[C@@H](CC3CCCCC3)C(=O)O)[C@H]2O)[C@@H](O)[C@H](O)[C@@H]1O", "µM", 9.5],
  ["CCCCCC[C@H]1CCC[C@@H](O[C@@H]2O[C@H](CO)[C@H](O)[C@H](O[C@@H](CC3CCCCC3)C(=O)O)[C@H]2O)[C@@H]1O[C@@H]1O[C@@H](C)[C@@H](O)[C@@H](O)[C@@H]1O", "µM", 4.3],
  ["C[C@@H]1O[C@@H](O[C@@H]2[C@@H](CC3CCCCC3)CCC[C@H]2O[C@@H]2O[C@H](CO)[C@H](O)[C@H](O[C@@H](CC3CCCCC3)C(=O)O)[C@H]2O)[C@@H](O)[C@H](O)[C@@H]1O", "µM", 14]
]}

# evaluate next
Lookup: Quote Kd reported for C[C@@H]1O[C@@H](O[C@@H]2[C@@H](Cc3ccccc3)CCC[C@H]2O[C@@H]2O[C@H](CO)[C@H](O)[C@H](O[C@@H](CC3CCCCC3)C(=O)O)[C@H]2O)[C@@H](O)[C@H](O)[C@@H]1O please.
Found: 18
